- Test system: Multi-drug-resistant S. pneumoniae ATCC 700677
- PROTOCOL DESCRIPTION: microbe, parasite or virus in culture
- CONDITION SUMMARY: ATCC 700677
MEASURED ENDPOINT: MIC MDR S.P. (µg/mL)
Kindly answer with a numeric value in µg/mL, unit omitted.

Below, each entry is followed by its recorded MIC MDR S.P. result.
[
  {
    "COMPOUND": "CCCCCCCCCCC(=O)N[C@@H](CCCCN)C(=O)N[C@@H](CCCCN)C(=O)N[C@@H](CCCCNC(=O)[C@H]1NC(=O)[C@H]2NC(=O)[C@H](NC(=O)[C@@H]3NC(=O)[C@H](CC(N)=O)NC(=O)[C@H](NC(=O)[C@@H](CC(C)C)NC)[C@H](O)c4ccc(c(Cl)c4)Oc4cc3cc(c4O[C@@H]3O[C@H](CO)[C@@H](O)[C@H](O)[C@H]3O[C@H]3C[C@](C)(N)[C@H](O)[C@H](C)O3)Oc3ccc(cc3Cl)[C@H]2O)c2ccc(O)c(c2)-c2c(O)cc(O)cc21)C(N)=O [Compound 21, nC10CO-KK-K(Vancomycin)-NH2]",
    "MEASURED ENDPOINT": "MIC MDR S.P.",
    "RECORDED MEASUREMENT": 0.015
  },
  {
    "COMPOUND": "CCCCCCCCCCC(=O)N[C@@H](CCCCN)C(=O)N[C@@H](CCCCN)C(=O)N[C@@H](CCCCNC(=O)[C@H]1NC(=O)[C@H]2NC(=O)[C@H](NC(=O)[C@@H]3NC(=O)[C@H](CC(N)=O)NC(=O)[C@H](NC(=O)[C@@H](CC(C)C)NC)[C@H](O)c4ccc(c(Cl)c4)Oc4cc3cc(c4O[C@@H]3O[C@H](CO)[C@@H](O)[C@H](O)[C@H]3O[C@H]3C[C@](C)(N)[C@H](O)[C@H](C)O3)Oc3ccc(cc3Cl)[C@H]2O)c2ccc(O)c(c2)-c2c(O)cc(O)cc21)C(=O)NC [Compound 22, nC10CO-KK-K(Vancomycin)-NHMe]",
    "MEASURED ENDPOINT": "MIC MDR S.P.",
    "RECORDED MEASUREMENT": 0.015
  },
  {
    "COMPOUND": "CCCCCCCCCCC(=O)N[C@@H](CCCCN)C(=O)N[C@@H](CCCCN)C(=O)N[C@@H](CCCCNC(=O)[C@H]1NC(=O)[C@H]2NC(=O)[C@H](NC(=O)[C@@H]3NC(=O)[C@H](CC(N)=O)NC(=O)[C@H](NC(=O)[C@@H](CC(C)C)NC)[C@H](O)c4ccc(c(Cl)c4)Oc4cc3cc(c4O[C@@H]3O[C@H](CO)[C@@H](O)[C@H](O)[C@H]3O[C@H]3C[C@](C)(N)[C@H](O)[C@H](C)O3)Oc3ccc(cc3Cl)[C@H]2O)c2ccc(O)c(c2)-c2c(O)cc(O)cc21)C(=O)O [Compound 19, nC10CO-KK-K(Vancomycin)-OH]",
    "MEASURED ENDPOINT": "MIC MDR S.P.",
    "RECORDED MEASUREMENT": 0.06
  },
  {
    "COMPOUND": "CCCCCCCCCC(=O)N[C@@H](CCCCN)C(=O)N[C@@H](CCCCN)C(=O)N[C@@H](CCCCN)C(=O)N[C@@H](CCCCNC(=O)[C@H]1NC(=O)[C@H]2NC(=O)[C@H](NC(=O)[C@@H]3NC(=O)[C@H](CC(N)=O)NC(=O)[C@H](NC(=O)[C@@H](CC(C)C)NC)[C@H](O)c4ccc(c(Cl)c4)Oc4cc3cc(c4O[C@@H]3O[C@H](CO)[C@@H](O)[C@H](O)[C@H]3O[C@H]3C[C@](C)(N)[C@H](O)[C@H](C)O3)Oc3ccc(cc3Cl)[C@H]2O)c2ccc(O)c(c2)-c2c(O)cc(O)cc21)C(=O)O [Compound 36, nC9CO-KKK-K(Vancomycin)-OH]",
    "MEASURED ENDPOINT": "MIC MDR S.P.",
    "RECORDED MEASUREMENT": 0.06
  }
]

Now look at this one.
Looking for the measured MIC MDR S.P. of CCCCCCCCCCC(=O)N[C@@H](CCCCN)C(=O)N[C@@H](CCCCN)C(=O)N[C@@H](CCCCN)C(=O)N[C@@H](CCCCNC(=O)[C@H]1NC(=O)[C@H]2NC(=O)[C@H](NC(=O)[C@@H]3NC(=O)[C@H](CC(N)=O)NC(=O)[C@H](NC(=O)[C@@H](CC(C)C)NC)[C@H](O)c4ccc(c(Cl)c4)Oc4cc3cc(c4O[C@@H]3O[C@H](CO)[C@@H](O)[C@H](O)[C@H]3O[C@H]3C[C@](C)(N)[C@H](O)[C@H](C)O3)Oc3ccc(cc3Cl)[C@H]2O)c2ccc(O)c(c2)-c2c(O)cc(O)cc21)C(=O)O [Compound 18, nC10CO-KKK-K(Vancomycin)-OH] , can you help? 0.06
